B1: TAF7L (parent)
chain: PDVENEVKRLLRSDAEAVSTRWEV

# Variants of: B1
# TEST_DESCRIPTION: protein stability index of a GFP-peptide fusion (GPS, HEK-293T) (PSI 1-6); higher = more stable;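 further: lentivirally expressed fusions sorted by FACS into six bins by GFP to DsRed ratio, PSI derived from sequencing read proportions per bin multiplied by bin number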
# CONDITION_LABEL: c terminus: a fixed tail appended
RESULT_TYPE: protein stability index
Answer with the value's number alone.

# MUT, protein stability index
rows = [
    ("E6P", 4.02),
    ("T20F", 2.74),
    ("W22Q", 5.11),
    ("R21L", 2.86),
    ("A17G", 3.69),
    ("R12H", 4.38),
    ("R21Y", 2.51),
    ("D2A", 3.91),
    ("L11K", 4.37),
    ("D14A", 1.97),
]

Summary for this variant, A15G : protein stability index is 3.97

Recorded result, A15V , protein stability index: 3.02
